src = PubChem BioAssay AID256

System: CD2F1 mice, L1210 leukemia ip, survival T/C
Test: NCI In Vivo Anticancer Drug Screen. Data for tumor model L1210 Leukemia (intraperitoneal) in CD2F1 (CDF1) mice
Settings: endpoint: mean survival time; dose: 400.0 mg/kg/injection; schedule: Q01DX009 (ip); vehicle: saline with Tween-80; higher = longer survival
Procedure: The antitumor activity of compounds was measured in mice bearing transplantable tumors. Survival or tumor size were measured and the results are expressed as the measurement made in the treated group (T) divided by the measurement made in the vehicle treated control group (C). The tumor model used in this assay is L1210 Leukemia (intraperitoneal) in CD2F1 (CDF1) mice
Inconclusive results and toxic doses are left out.
experimental_endpoint: T/C

{"molecule": "O=C(O)CCCCCc1ccccc1", "target_system": "CD2F1 mice, L1210 leukemia ip, survival T/C", "readout_value": "101 % of control"}

Now examine the next entry.
Fill blank: measured T/C of the molecule `CCCCO.[Ti]` is ____.
104 % of control
